- test.system: T1, human IL-17A (construct not stated) (human, UniProt Q16552 24-155, limits assumed)
- T1 construct: also called huIL-17A; human IL-17A biotin
- T1 sequence: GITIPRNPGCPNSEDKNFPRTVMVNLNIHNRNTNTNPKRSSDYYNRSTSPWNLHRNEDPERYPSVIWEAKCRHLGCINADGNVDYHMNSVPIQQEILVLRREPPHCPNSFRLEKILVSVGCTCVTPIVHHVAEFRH
- measurement.description: ELISA on coated huIL-17A, crude Fab extract, wash of at least 3 h
Each record here notes measured Off-rate ELISA (normalized to XAB1 Fab).

binder | parameter.measured | experimental.value
MB434 (Fab, V domains shown, heavy chain C-terminal Flag tag) VH: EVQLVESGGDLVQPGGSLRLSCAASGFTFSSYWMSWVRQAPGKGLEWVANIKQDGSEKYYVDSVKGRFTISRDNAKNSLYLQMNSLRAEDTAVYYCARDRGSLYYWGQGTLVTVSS VL: AIQLTQSPSSLSASVGDRVTITCRPSQGIWWYLAWYQQKPGKAPKLLIYDASSLENGVPSRFSGSGSGTDFTLTISSLQPEDFATYYCQQFNSYPLTFGGGTKVEIK | Off-rate ELISA (normalized to XAB1 Fab) | 44.4 ratio to XAB1 Fab
MB456 (Fab, V domains shown, heavy chain C-terminal Flag tag) VH: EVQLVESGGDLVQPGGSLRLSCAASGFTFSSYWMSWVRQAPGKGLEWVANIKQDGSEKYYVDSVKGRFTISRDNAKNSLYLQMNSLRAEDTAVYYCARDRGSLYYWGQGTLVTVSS VL: AIQLTQSPSSLSASVGDRVTITCRPSQGILWHLAWYQQKPGKAPKLLIYDASSLENGVPSRFSGSGSGTDFTLTISSLQPEDFATYYCQQFNSYPLTFGGGTKVEIK | Off-rate ELISA (normalized to XAB1 Fab) | 45.1 ratio to XAB1 Fab

Okay, next one:
Enquiry: Please report Off-rate ELISA (normalized to XAB1 Fab) for the following binder: MB432 (Fab, V domains shown, 32 stays A); heavy chain C-terminal Flag tag) VH: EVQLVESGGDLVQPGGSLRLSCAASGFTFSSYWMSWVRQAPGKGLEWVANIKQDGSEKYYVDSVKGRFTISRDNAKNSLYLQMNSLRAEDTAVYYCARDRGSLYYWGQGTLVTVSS VL: AIQLTQSPSSLSASVGDRVTITCRPSQGILFALAWYQQKPGKAPKLLIYDASSLENGVPSRFSGSGSGTDFTLTISSLQPEDFATYYCQQFNSYPLTFGGGTKVEIK
Return: 44.2 ratio to XAB1 Fab
